Here, each record is paired with measured viability increase data.
Test Summary: viability gain of MRP-1-high H69AR cells under doxorubicin, pilot screen, MRP-1 activator project, CellTiter-Glo, duplicate (AID 807);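 further: compound pretreatment 18-22 h then 72 h combined with doxorubicin; 0% = doxorubicin alone and 100% = vehicle without doxorubicin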
Measurement Parameters: H69AR viability with doxorubicin, CellTiter-Glo luminescence; at 10 µM; stronger effect = higher value

Compound: CCOC(=O)C1CCN(C(=O)c2cc3c(-c4ccc(OC)c(OC)c4)nn(C)c3s2)CC1
viability increase [%]: -2.04
--
Compound: Nc1nc(Nc2cccc(F)c2)nc2ccccc12
viability increase [%]: -5.76
--
Compound: COCCN1C(=O)c2oc3ccccc3c(=O)c2C1c1cccc(O)c1 (configuration not stated)
viability increase [%]: -0.6
--
Compound: Cc1c(NC(=O)OCCSc2nc(N(C)C)nc(N(C)C)n2)sc(=S)n1C
viability increase [%]: -0.48
--
Compound: Cc1nc2cc(-c3cccc(F)c3)nn2c(C)c1CCC(=O)N1CCN(c2ccccn2)CC1
viability increase [%]: -1.74
--
Compound: CCCCn1c(CNC(=O)c2cccs2)nc2ccccc21
viability increase [%]: -3.7
--
Compound: CCc1ccc(N2CCN(C(=O)c3ccc(OC)c(OC)c3)CC2)cc1
viability increase [%]: 2.36
